Listing of recorded GI50 by entry.
- System: DU-145 prostate
- RUN_DESCRIPTION: NCI tumour cell line growth inhibition, 48 h
PARAMETER: GI50

>  <MOLECULE>
Oc1ccc(N=Nc2nccs2)c(O)c1

>  <READOUT_VALUE>
5.23 µM

$$$$
>  <MOLECULE>
C=C(C)[C@@H]1CC[C@]2(C)[C@H](CC[C@@H]3[C@@H]([C@@](C)(O)CCC=C(C)C)CC[C@]32C)[C@@]1(C)CCC(=O)O

>  <READOUT_VALUE>
16.7 µM

$$$$
>  <MOLECULE>
NC(=O)CNc1ccc([As]=[As]c2ccc(NCC(N)=O)cc2)cc1 (stereo not drawn)

>  <READOUT_VALUE>
6.48 µM

$$$$

====

- Tested on: PC-3 prostate
- RUN_DESCRIPTION: NCI tumour cell line growth inhibition, 48 h
Listing of recorded TGI by entry.
PARAMETER: TGI

>  <COMPOUND>
O=C(CBr)c1ccc2cc(Br)c3ccccc3c2c1

>  <ASSAY_TARGET>
PC-3 prostate

>  <READOUT_VALUE>
53.1 µM

$$$$
>  <COMPOUND>
CN(C)CCCNc1ccc2ncn3c4ccc(O)cc4c(=O)c1c23

>  <ASSAY_TARGET>
PC-3 prostate

>  <READOUT_VALUE>
14.4 µM

$$$$
>  <COMPOUND>
CCc1nc(Cl)c(Cl)c(Cl)n1

>  <ASSAY_TARGET>
PC-3 prostate

>  <READOUT_VALUE>
> 100 µM

$$$$
>  <COMPOUND>
CC(=O)NC1CONC1=O (stereo unspecified)

>  <ASSAY_TARGET>
PC-3 prostate

>  <READOUT_VALUE>
> 100 µM

$$$$
>  <COMPOUND>
CC(=O)c1c(N=[N+]=[N-])c2cccc3c2n(c1=O)CCC3

>  <ASSAY_TARGET>
PC-3 prostate

>  <READOUT_VALUE>
38.6 µM

$$$$
>  <COMPOUND>
CC(=O)O[C@@]12CO[C@@H]1CC(O)[C@@]1(C)C(=O)[C@H](O)C3=C(C)C(O)C[C@@](O)(C(OC(=O)c4ccccc4)C12)C3(C)C (stereo partly specified)

>  <ASSAY_TARGET>
PC-3 prostate

>  <READOUT_VALUE>
> 100 µM

$$$$
>  <COMPOUND>
NCCCOc1cc2ccccc2cc1C(=O)NCCCOc1cc2ccccc2cc1C(=O)Nc1ccc(Cl)cc1O

>  <ASSAY_TARGET>
PC-3 prostate

>  <READOUT_VALUE>
0.974 µM

$$$$
>  <COMPOUND>
CC1(C)OP(=O)(O)C=C1Sc1ccc([N+](=O)[O-])cc1[N+](=O)[O-]

>  <ASSAY_TARGET>
PC-3 prostate

>  <READOUT_VALUE>
> 100 µM

$$$$
>  <COMPOUND>
Cn1c(=S)c2[nH]c(SCCCc3ccccc3)nc2n(C)c1=O

>  <ASSAY_TARGET>
PC-3 prostate

>  <READOUT_VALUE>
> 100 µM

$$$$
>  <COMPOUND>
CC(NC(=O)c1c(O)[nH]c(=S)[nH]c1=O)c1ccc([N+](=O)[O-])cc1 (stereo unspecified)

>  <ASSAY_TARGET>
PC-3 prostate

>  <READOUT_VALUE>
> 100 µM

$$$$
>  <COMPOUND>
COc1ccc2c(c1)c(-c1nc(-c3c[nH]c4ncccc34)cs1)cn2CCCCN1CCCCC1

>  <ASSAY_TARGET>
PC-3 prostate

>  <READOUT_VALUE>
2.93 µM

$$$$
>  <COMPOUND>
N#CC(C#N)=C1CCCOc2c1ccc1ccccc21

>  <ASSAY_TARGET>
PC-3 prostate

>  <READOUT_VALUE>
> 100 µM

$$$$
>  <COMPOUND>
NCCCOc1cc(Cl)ccc1NC(=O)c1cc2ccccc2cc1OCCCN

>  <ASSAY_TARGET>
PC-3 prostate

>  <READOUT_VALUE>
2.83 µM

$$$$
>  <COMPOUND>
Cc1[nH]n(-c2nc(O)c(-c3ccccc3)c(=O)[nH]2)c(=O)c1CCO

>  <ASSAY_TARGET>
PC-3 prostate

>  <READOUT_VALUE>
> 100 µM

$$$$
>  <COMPOUND>
COC(=O)C(=O)CC(=O)c1cccc(OC)c1

>  <ASSAY_TARGET>
PC-3 prostate

>  <READOUT_VALUE>
> 100 µM

$$$$
>  <COMPOUND>
CCCO[C@@H]1[C@@H](OC(C)=O)[C@@H](OC(C)=O)C(C)(C)/C=C/[C@H](C)C(=O)[C@@]2(OC(C)=O)C[C@@](C)(OC(C)=O)[C@H](OC(C)=O)[C@@H]2[C@H]2OC(=O)CC[C@@]12OC(=O)c1ccccc1

>  <ASSAY_TARGET>
PC-3 prostate

>  <READOUT_VALUE>
> 25 µM

$$$$
>  <COMPOUND>
N#Cc1cc2c(cc1Cl)Sc1nnc(Nc3ccccc3)n1S2(=O)=O

>  <ASSAY_TARGET>
PC-3 prostate

>  <READOUT_VALUE>
3.89 µM

$$$$
>  <COMPOUND>
Cc1nc2ccc(S(=O)(=O)Nc3nccs3)cc2c(=O)n1NS(=O)(=O)c1nccs1

>  <ASSAY_TARGET>
PC-3 prostate

>  <READOUT_VALUE>
> 100 µM

$$$$
>  <COMPOUND>
COc1ccc(CNc2nc(NC3CCCCC3)nc(NC3CCCCC3)n2)cc1

>  <ASSAY_TARGET>
PC-3 prostate

>  <READOUT_VALUE>
> 100 µM

$$$$
>  <COMPOUND>
Oc1c(Br)ccc2cccnc12

>  <ASSAY_TARGET>
PC-3 prostate

>  <READOUT_VALUE>
> 100 µM

$$$$
>  <COMPOUND>
Clc1nc(Cl)c2ncn(Cc3ccccc3Cn3cnc4c(Cl)nc(Cl)nc43)c2n1

>  <ASSAY_TARGET>
PC-3 prostate

>  <READOUT_VALUE>
5.53 µM

$$$$

The values you see were collected from PubChem BioAssay (NCI).
